Recorded values, source PubChem BioAssay.

Kindly state nuclei count for each of the entries shown.
- ASSAY_SUMMARY: inhibitors of E-selectin induction by TNFa, primary screen, imaging, HUVEC, immunofluorescence, MLSMR starter and 10KST1 sets (AID 487);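 on nuclei count: 100% = median nuclei count of all wells on the same plate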
- CONDITION_DESCRIPTION: HUVEC TNFalpha-induced E-selectin immunofluorescence imaging, at 2 µM; measured here: cell number, toxicity
Response body: numeric value in %, unit text excluded.

Problem: Which nuclei count is listed for OC(COc1ccc2ccccc2c1)CN1CCOCC1 (centres undefined) ?
Solution: 95.6

Problem: What about this compound? "CCOC(=O)c1c(N)sc(C(=O)N2CCOCC2)c1C"
Solution: 119

Problem: Also "CN(CCCCCC(=O)/C=N/O)Cc1ccccc1" , if possible.
Solution: 182

Problem: Cool, now "COc1ccc2nc(SCC(=O)O)nc(C)c2c1"
Solution: 167

Problem: Field entry: COCc1[nH]nc2c1C(c1ccc(OC)cc1)C(C#N)=C(N)O2 (centres undefined)
Solution: 142

Problem: Now the compound "COc1ccccc1-c1nnc(NC(=O)c2ccc(S(=O)(=O)N(C)Cc3ccccc3)cc2)o1"
Solution: 99.4

Problem: Next compound up: "COc1ccc(NC(=O)CCS(=O)(=O)c2ccc(OC)cc2)cc1"
Solution: 101

Problem: Now the compound CC1CCC(NC(=O)C2(C)CCC(=O)N2Cc2cccnc2)CC1 (centres undefined)
Solution: 101

Problem: Here is the next compound: CCOC(=O)c1[nH]c2cc3c(cc2c1NC(=O)CN1CC(C)CC(C)C1)OCO3 (centres undefined)
Solution: 167

Problem: # iterate: "O=S(=O)(/C=C/c1ccccc1)Nc1ccc2c(c1)OCO2"
Solution: 154

Problem: Ok, now "O=C(c1ccco1)N1CCN(c2cccc(Cl)c2)CC1"
Solution: 91.6

Problem: Now consider "Cc1c(=O)n(OCc2c(F)cccc2F)c2ccccc2[n+]1[O-]" and answer again.
Solution: 163

Problem: Repeat for the following compound: "O=C(NCCCn1ccnc1)c1cccnc1"
Solution: 187

Problem: Proceed to "CCCc1cc(=O)oc2c(C)c(O)c(CN3CCCCC3)cc12"
Solution: 157

Problem: # iterate: "CCOc1ccc(C2=Nn3c(nnc3-c3ccccc3OC)SC2)cc1"
Solution: 82.2

Problem: Another compound: "COC(=O)c1c(N)sc(C(=O)N2CCOCC2)c1C"
Solution: 32.3

Problem: Next up: "C=CC[N+](C)(C)CCCNC(=O)/C=N/O"
Solution: 164

Problem: // repeat for N#CC1=C(SCC(=O)NC23CC4CC(CC(C4)C2)C3)NC(=O)C(C#N)C12CCCCC2 (centres undefined) and report
Solution: 123

Problem: Subsequent entry: "N#Cc1cc(Oc2cccc3cccnc23)c(-n2nnc3ccccc32)cc1C#N"
Solution: 145

Problem: Likewise for Cc1ccc(N2CC(C(=O)Nc3ccc(N(C)C)cc3)CC2=O)cc1C (centres undefined) ?
Solution: 107

Problem: # repeat for "CCOC(=O)C1CCN(c2ncnc3c2cnn3-c2ccc(Cl)cc2)CC1"
Solution: 158

Problem: And the next one, "N#Cc1c(NCCCO)nc(-c2ccccc2)c2c1CCCC2" ?
Solution: 154

Problem: Okay, and "COc1ccc(-n2ncc3c(N4CCC(C(N)=O)CC4)ncnc32)cc1" ?
Solution: 159

Problem: Try this compound next: CC(=O)Nc1ccc(OC(=O)CC2SC(=O)NC2=O)cc1 (centres undefined)
Solution: 97.7

----------
Could you please report measured inhibition for the items listed next?
- ASSAY_SUMMARY: inhibitors of Sendai virus-induced IRF3 signaling, primary screen, TLR/RLR signaling modifier project, cell-based, Sendai virus stimulus, luciferase, 10K MLSCN set (AID 602276);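 further: firefly luciferase from ISG56 promoter only with Renilla not read in this screen; 0% = Sendai virus plus DMSO and 100% = medium plus DMSO without virus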
- CONDITION_DESCRIPTION: HEK293 RL24 IRF3 luciferase reporter, at 10 µM, stronger effect = higher value
Number only, in %; omit the unit.

Problem: Endpoint output: inhibition of "CCOC(=O)N1CCN(C(=O)CSc2cc(C)nc3c(-c4ccccc4OC)c(C)nn23)CC1" . Value?
Solution: -11.1

Problem: Now give it for "O=c1oc2c3c4c(cc2s1)CCCN4CCC3" too.
Solution: 7.3

Problem: // next record "COc1ccc(-c2nnn(CC(=O)c3ccc4c(c3)OCCO4)n2)cc1OC"
Solution: 19.3

Problem: # iterate: "CN(C)S(=O)(=O)c1cccc(C(=O)Nc2cccnc2)c1"
Solution: 16.5

Problem: What would you report for CCCCN(C(=O)c1ccc(Cl)cc1)C1CC2CCC(C1)N2C (stereo unspecified) ?
Solution: -6.18

Problem: Would you mind doing "O=C(Nc1ccccc1C(F)(F)F)c1cc(S(=O)(=O)N2CCOCC2)ccc1F" as well?
Solution: 8.22

----------
- ASSAY_SUMMARY: inhibitors of E-selectin induction by TNFa, primary screen, imaging, HUVEC, immunofluorescence, MLSMR starter and 10KST1 sets (AID 487);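 on inhibition: signal is fraction of cell area covered by stained E-selectin grains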
- CONDITION_DESCRIPTION: HUVEC TNFalpha-induced E-selectin immunofluorescence imaging, at 2 µM; stronger effect = higher value
REPORTED_METRIC: inhibition (%)
Write the answer as a number in %, unit excluded.

Problem: Which measured inhibition value corresponds to CCOC(=O)c1cccnc1SCC(=O)NC(C)CC (stereo unspecified) ?
Solution: -54.6

Problem: // same read-out, input: "CCn1c(CSc2nc(C)cc(C)n2)nnc1SCC(=O)Nc1ccccc1"
Solution: -38.7

Problem: Do the same for O=C1CC(C2CCCO2)C(=O)N1Cc1ccccc1 (stereo unspecified) please
Solution: -1.7

Problem: Then what about the compound "COc1ccc(-c2nc3cc(NC(=O)Cc4ccc(OC)c(OC)c4)ccc3o2)cc1" ?
Solution: -13.5

Problem: Same read-out for CCCCC(NS(=O)(=O)c1ccc(OC)cc1)C(=O)O (stereo unspecified) ?
Solution: -31.9

Problem: And what about the compound "Cn1c(=O)[nH]c(=O)c2c1nc(Br)n2CCSc1ncccn1" ?
Solution: -107

Problem: Next compound: "CCSc1nnc(NC(=O)C(C)(C(F)(F)F)C(F)(F)F)s1"
Solution: -107

Problem: What about this compound? "CCOC(=O)N1CCN(C(=O)CSc2nnc(-c3cc(OC)cc(OC)c3)o2)CC1"
Solution: -54.1

Problem: Subsequent entry: "Cc1cc(NS(=O)(=O)Cc2ccccc2)cc(C)c1OCC(=O)N1CCOCC1"
Solution: -47.7

Problem: "COc1ccccc1NC(=O)Nc1nnc(C(C)C)s1" ?
Solution: -24.3

Problem: Then this compound: "COC(=O)CSc1cc(C)nc(NC(C)=O)n1"
Solution: -5.3

----------
Exercise: state measured inhibition of aggregation for each of the compounds provided.
- ASSAY_SUMMARY: inhibitors of mutant huntingtin aggregation, primary screen, imaging, exon1htt(103Q)mCFP cells, high-content imaging (AID 483);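 further: compound exposure lasted 3 days before fixation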
- CONDITION_DESCRIPTION: exon1htt(103Q)mCFP cell line, aggregate imaging, at 2 µM; stronger effect = higher value
# value in %; strip the unit string

Problem: Would you mind telling me what inhibition of aggregation value was observed for "O=C(c1csc2ccccc12)n1cccn1" ?
Solution: 6

Problem: # iterate: Cc1nc2sc(C(c3cccc(F)c3)N3CCOCC3)c(O)n2n1 (stereo unspecified)
Solution: -29

Problem: And "CCN(CC)c1nc2nonc2nc1N(CC)CC" ?
Solution: -1.5

Problem: Next up: "Cc1csc(NC(=O)CSc2nnc(Cc3cccn3C)n2-c2ccc(F)cc2)n1"
Solution: 12.8

Problem: And what about the compound "O=C(C1CCN(c2nnnn2-c2ccccc2)CC1)N1CCN(c2ccccc2)CC1" ?
Solution: -1.1

Problem: Same question for "O=C(CN1C(=O)CCS(=O)(=O)c2ccccc21)Nc1cccc(F)c1" please.
Solution: -2.1

----------
- TGT: Voltage-gated potassium channel subunit beta-2 (Rattus norvegicus) (UniProt P62483)
- Sequence (P62483 whole entry, looked up): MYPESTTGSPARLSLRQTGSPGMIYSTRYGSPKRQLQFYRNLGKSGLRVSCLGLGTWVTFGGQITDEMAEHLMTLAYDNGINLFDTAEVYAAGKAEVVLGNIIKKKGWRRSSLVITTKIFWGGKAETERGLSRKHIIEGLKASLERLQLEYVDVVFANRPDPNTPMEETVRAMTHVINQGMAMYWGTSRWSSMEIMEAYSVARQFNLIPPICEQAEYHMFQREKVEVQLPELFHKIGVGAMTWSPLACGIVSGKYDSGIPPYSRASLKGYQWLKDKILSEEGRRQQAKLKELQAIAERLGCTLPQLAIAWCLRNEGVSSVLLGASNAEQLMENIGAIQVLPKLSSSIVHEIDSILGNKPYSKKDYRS
- ASSAY_SUMMARY: KvBeta positive modulators, primary screen, biochemical, NADPH fluorescence (AID 623);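 further: fluorescence intensity change per second fitted from 20 to 320 s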
- CONDITION_DESCRIPTION: Recombinant KvBeta, NADPH fluorescence decrease slope, 10 min; at 10 µM; stronger effect = lower value
Calls of active or inactive are those of the source.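 Rule for the calls: active = NADPH fluorescence slope more negative than the mean of all samples by about 3 SD, 99.7% confidence; inactive = the rest.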
REPORTED_METRIC: NADPH fluorescence slope

Problem: # input molecule: Cc1ccc(-c2noc(-c3ccccc3C(=O)NCC3CCCO3)n2)cc1 (centres undefined) ; wanted: its NADPH fluorescence slope
Solution: 5.9e-05 (inactive)

Problem: Also need "Cn1c(=O)cc(OCCCC(=O)Nc2ccc3c(c2)OCCO3)c2ccccc21" , thanks.
Solution: -1.4e-05 (inactive)

Problem: Record: "O=C1CCCc2nc(N3CCCCC3)sc21"
Solution: -4.5e-05 (inactive)

Problem: Now give it for CS(=O)(=O)C1=C(O)C(=O)N(c2ccccc2)C1c1ccccc1 (centres undefined) too.
Solution: 1.7e-05 (inactive)

Problem: Moving on to the next molecule: "CCOC(=O)CSc1nnc(NCC(=O)OC(C)C)c(=O)[nH]1"
Solution: 3.9e-05 (inactive)

Problem: Also CC1=C(C(=O)Nc2ccc(F)cc2)C(c2cccc(C)c2)n2nc(CCCO)nc2N1 (centres undefined) ?
Solution: -1.6e-05 (inactive)

Problem: Same lookup for "C/C(NC(=O)c1ccccc1F)=C1\C(=O)C[C@@H]2[C@H]1C2(C)C" , please.
Solution: -0.000131 (inactive)

Problem: Same question, "CCCCC(=O)C1CCN(Cc2ccccc2)CC1" this time
Solution: -0.000111 (inactive)

Problem: And the next one, "COc1ccccc1C(=O)NCC(=O)n1nc(C)cc1C" ?
Solution: -5.1e-05 (inactive)

Problem: Next up: "O=C(c1coc(=O)c(Br)c1)N1CCOCC1"
Solution: 3.1e-07 (inactive)

Problem: Could you do the same for "CC1(C)Cc2c(c(N3CCOCC3)nc3snc(Br)c23)CO1" , please?
Solution: -1.8e-05 (inactive)

Problem: Now consider "N#Cc1nc(-c2cccs2)oc1NCc1ccccc1" and answer again.
Solution: -2.5e-05 (inactive)

Problem: Item: "COCCNc1oc(-c2ccc(F)cc2)nc1C#N"
Solution: -6.5e-05 (inactive)

Problem: And then "CCOC(=O)c1c(CN2CCN(CCO)CC2)n(C)c2cc(Br)c(OC)cc12" , what is it?
Solution: 5.8e-06 (inactive)

Problem: Now consider "COCCn1c(=N)c(C(=O)NCCc2ccccc2)cc2c(=O)n3cccc(C)c3nc21" .
Solution: 4.2e-06 (inactive)

Problem: What do we get for "O=c1oc2c(CN3CCCCC3)c(O)ccc2c2c1CCCCC2" ?
Solution: 8.5e-07 (inactive)

Problem: Then "CCC(NC(=O)Nc1nccs1)(C(F)(F)F)C(F)(F)F" ?
Solution: -3.1e-05 (inactive)

Problem: Now consider "CC(=O)Nc1cccc(Oc2nc(C)cc(C)c2C#N)c1" .
Solution: -1.7e-05 (inactive)

Problem: Note, next up: "O=C(Nc1cccnc1)Nc1ccccn1"
Solution: -4.6e-05 (inactive)

Problem: Same thing, different molecule: "O=C(CN(Cc1ccco1)C(=O)CNS(=O)(=O)c1ccc(F)cc1)NCCc1ccccc1"
Solution: -2.9e-05 (inactive)

Problem: Do the same for CCCCCCOc1ccc(N2C(=O)CC(N3CCN(C(=O)c4ccco4)CC3)C2=O)cc1 (centres undefined) please
Solution: -3.5e-05 (inactive)

Problem: Another molecule to check: "CCc1nc(N2CCOCC2)c(C#N)c2c1CCCC2"
Solution: -6.5e-05 (inactive)

Problem: Also check "CCC(C)(C)NC(=O)CN(Cc1ccc2c(c1)OCO2)C(=O)CCC(=O)Nc1ccccn1"
Solution: -6.3e-05 (inactive)

Problem: Now consider "Cc1cc(NC(=O)CSc2nccn2-c2ccc(F)cc2)no1" .
Solution: 9.8e-06 (inactive)
